- Condition Parameters: 313.15 K; 101.33 kPa; Liquid; Vibrating tube method
Recorded Metric: mass density (kg/m3)
Report only the number, with the unit kg/m3 understood.

[[record]]
test_smiles = "CCCC[n+]1ccn(C)c1.O=S(=O)([N-]S(=O)(=O)C(F)(F)F)C(F)(F)F"
recorded_metric = "mass density"
measured_value = 1421.6

[[record]]
test_smiles = "CCCCCCCCCCn1cc[n+](C)c1.O=S(=O)([N-]S(=O)(=O)C(F)(F)F)C(F)(F)F"
recorded_metric = "mass density"
measured_value = 1265.3

[[record]]
test_smiles = "CCCCCCCCCCCCCC[P+](CCCCCC)(CCCCCC)CCCCCC.O=S(=O)([O-])C(F)(F)F"
recorded_metric = "mass density"
measured_value = 972.5


Now for the molecule whose mass density we want.
Item CCCCCCCCCCCCCC[P+](CCCCCC)(CCCCCC)CCCCCC.O=S(=O)([N-]S(=O)(=O)C(F)(F)F)C(F)(F)F has what recorded mass density? 1054.5

These data points were gathered from the NIST ThermoML archive (doi:10.1016/j.jct.2009.01.012).
